biological target: TRPV1 (hTRPV1) (Homo sapiens (Human), UniProt Q8NER1); assay: Patch clamp selectivity, TRPV1 inward current; conditions: tested at concentrations up to 30 μM, IC50 estimated
Sequence (Q8NER1 whole entry): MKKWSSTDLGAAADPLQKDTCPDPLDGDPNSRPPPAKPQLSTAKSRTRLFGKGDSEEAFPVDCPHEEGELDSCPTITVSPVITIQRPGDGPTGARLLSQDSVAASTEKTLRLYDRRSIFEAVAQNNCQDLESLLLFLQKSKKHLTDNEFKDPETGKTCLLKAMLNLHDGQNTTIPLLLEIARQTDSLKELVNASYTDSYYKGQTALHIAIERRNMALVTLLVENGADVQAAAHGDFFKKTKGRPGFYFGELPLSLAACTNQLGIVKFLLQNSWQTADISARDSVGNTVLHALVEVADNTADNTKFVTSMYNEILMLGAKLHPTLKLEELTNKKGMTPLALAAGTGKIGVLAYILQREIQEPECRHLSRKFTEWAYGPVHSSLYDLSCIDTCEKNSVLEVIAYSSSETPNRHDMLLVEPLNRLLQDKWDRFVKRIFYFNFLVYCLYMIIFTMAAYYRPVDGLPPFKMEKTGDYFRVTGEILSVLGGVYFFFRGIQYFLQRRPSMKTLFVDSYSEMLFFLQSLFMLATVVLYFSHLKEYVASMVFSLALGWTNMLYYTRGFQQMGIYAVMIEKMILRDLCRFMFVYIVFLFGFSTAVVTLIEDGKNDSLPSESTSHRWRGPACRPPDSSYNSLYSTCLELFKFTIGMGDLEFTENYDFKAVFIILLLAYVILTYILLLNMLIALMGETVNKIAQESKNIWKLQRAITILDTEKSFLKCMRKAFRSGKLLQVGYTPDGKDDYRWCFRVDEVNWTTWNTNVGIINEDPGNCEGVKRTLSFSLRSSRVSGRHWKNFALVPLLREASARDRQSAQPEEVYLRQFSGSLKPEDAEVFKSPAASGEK

compound: Cc1cccc2c1N(C(=O)CSc1ccc(C(F)(F)F)cn1)CCC2 [Compound 6]
IC50: ≥ 20 µM

====

target: TRPV3 (Homo sapiens (Human), UniProt Q8NET8); assay: Whole-cell patch clamp of TRPV3 mediated inward current; assay type: cell-based; details: Phase 2 inward current, HEK293/TREx TRPV3 cells, approximate values, read-out: TRPV3 Phase 2 IC50 inward
Sequence (Q8NET8 whole entry, species assumed): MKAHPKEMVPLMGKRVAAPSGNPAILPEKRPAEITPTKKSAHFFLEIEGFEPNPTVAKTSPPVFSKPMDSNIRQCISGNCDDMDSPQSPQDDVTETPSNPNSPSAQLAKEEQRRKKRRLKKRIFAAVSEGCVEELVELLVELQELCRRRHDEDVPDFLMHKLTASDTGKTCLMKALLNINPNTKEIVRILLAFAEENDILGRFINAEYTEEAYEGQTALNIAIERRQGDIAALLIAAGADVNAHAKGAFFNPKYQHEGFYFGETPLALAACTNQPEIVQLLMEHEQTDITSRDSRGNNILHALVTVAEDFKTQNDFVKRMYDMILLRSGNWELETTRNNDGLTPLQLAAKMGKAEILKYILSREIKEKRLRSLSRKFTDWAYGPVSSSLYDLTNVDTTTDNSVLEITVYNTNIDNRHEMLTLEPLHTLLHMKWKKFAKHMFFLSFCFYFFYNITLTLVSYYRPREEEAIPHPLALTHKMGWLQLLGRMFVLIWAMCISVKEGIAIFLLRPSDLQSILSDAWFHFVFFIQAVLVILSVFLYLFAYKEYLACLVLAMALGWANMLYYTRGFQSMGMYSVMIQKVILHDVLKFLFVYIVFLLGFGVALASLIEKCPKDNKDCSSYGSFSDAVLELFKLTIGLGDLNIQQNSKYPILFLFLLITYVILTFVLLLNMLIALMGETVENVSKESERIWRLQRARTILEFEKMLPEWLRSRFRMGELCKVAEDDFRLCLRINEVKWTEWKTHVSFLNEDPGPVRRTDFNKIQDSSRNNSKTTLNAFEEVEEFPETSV
pIC50: −log10 of the molar value.

querySmiles: Cc1cccc2c1N(C(=O)CSc1ccc(C#N)cn1)CCC2
testedSystem: TRPV3 (Homo sapiens (Human), UniProt Q8NET8)
pIC50: ≥ 5.30

querySmiles: Cc1cccc2c1N(C(=O)CSc1ncccc1Cl)CCC2
testedSystem: TRPV3 (Homo sapiens (Human), UniProt Q8NET8)
pIC50: ≥ 6.00

querySmiles: Cc1cccc2c1N(C(=O)CSc1ncc(C(F)(F)F)cc1Cl)CCC2
testedSystem: TRPV3 (Homo sapiens (Human), UniProt Q8NET8)
pIC50: ≥ 6.30

querySmiles: CCc1cc(C(F)(F)F)cnc1SCC(=O)N1CCCc2cccc(C)c21
testedSystem: TRPV3 (Homo sapiens (Human), UniProt Q8NET8)
pIC50: ≥ 5.30

querySmiles: Cc1ccc(SCC(=O)N2CCCc3cccc(C)c32)nc1
testedSystem: TRPV3 (Homo sapiens (Human), UniProt Q8NET8)
pIC50: ≥ 5.00

querySmiles: Cc1cccc2c1N(C(=O)CSc1ccc(Br)cn1)CCC2
testedSystem: TRPV3 (Homo sapiens (Human), UniProt Q8NET8)
pIC50: ≥ 6.30

querySmiles: Cc1cccc2c1N(C(=O)CSc1ccc(C(F)(F)F)cn1)CCC2
testedSystem: TRPV3 (Homo sapiens (Human), UniProt Q8NET8)
pIC50: ≥ 6.70

querySmiles: Cc1ccnc(SCC(=O)N2CCCc3cccc(C)c32)c1C
testedSystem: TRPV3 (Homo sapiens (Human), UniProt Q8NET8)
pIC50: ≥ 6.00

querySmiles: Cc1cccc2c1N(C(=O)CSc1ncccc1C(F)(F)F)CCC2
testedSystem: TRPV3 (Homo sapiens (Human), UniProt Q8NET8)
pIC50: ≥ 5.30

querySmiles: COc1cccc2c1N(C(=O)CSc1ncccc1Cl)CCC2
testedSystem: TRPV3 (Homo sapiens (Human), UniProt Q8NET8)
pIC50: ≥ 6.30

querySmiles: O=C(CSc1ccc(C(F)(F)F)cn1)N1CCCc2ccccc21
testedSystem: TRPV3 (Homo sapiens (Human), UniProt Q8NET8)
pIC50: ≥ 6.00

querySmiles: Cc1cccc2c1N(C(=O)CSc1ccccn1)CCC2
testedSystem: TRPV3 (Homo sapiens (Human), UniProt Q8NET8)
pIC50: ≥ 5.00

querySmiles: Cc1cccc2c1N(C(=O)CSc1ncccc1C#N)CCC2
testedSystem: TRPV3 (Homo sapiens (Human), UniProt Q8NET8)
pIC50: ≥ 6.30

querySmiles: Cc1cccc2c1N(C(=O)CSc1ccc(Cl)cn1)CCC2
testedSystem: TRPV3 (Homo sapiens (Human), UniProt Q8NET8)
pIC50: ≥ 6.30

querySmiles: COC(=O)c1cnc(SCC(=O)N2CCCc3cccc(C)c32)c(Cl)c1
testedSystem: TRPV3 (Homo sapiens (Human), UniProt Q8NET8)
pIC50: ≥ 5.30

querySmiles: Cc1cccc2c1N(C(=O)CSc1ncc(Cl)cc1Cl)CCC2
testedSystem: TRPV3 (Homo sapiens (Human), UniProt Q8NET8)
pIC50: ≥ 6.70

querySmiles: O=C(CSc1ccc(Cl)cn1)N1CCCc2ccccc21
testedSystem: TRPV3 (Homo sapiens (Human), UniProt Q8NET8)
pIC50: ≥ 5.30

querySmiles: Cc1cccc2c1N(C(=O)CSc1ncc(C(F)(F)F)cc1F)CCC2
testedSystem: TRPV3 (Homo sapiens (Human), UniProt Q8NET8)
pIC50: ≥ 6.70

querySmiles: Cc1cnc(SCC(=O)N2CCCc3cccc(C)c32)cc1C
testedSystem: TRPV3 (Homo sapiens (Human), UniProt Q8NET8)
pIC50: ≥ 6.70

querySmiles: Cc1cccc2c1N(C(=O)CSc1cc(C#N)ccn1)CCC2
testedSystem: TRPV3 (Homo sapiens (Human), UniProt Q8NET8)
pIC50: ≥ 5.00

Values from patent US9181219B2
